assayed-system: ParM mutant (His6/K33A/D63C/T174A/T175N/D224C/C287A), TMR-labelled ADP sensor (Escherichia coli, UniProt P11904, C287A/D224C/D63C/K33A/T174A/T175N)
procedure-details: single-molecule TIRF, TMR self-quenching
pKd: −log10 of the molar value.
measurement-kind: pKd

Nc1ncnc2c1ncn2[C@@H]1O[C@H](COP(=O)(O)OP(=O)(O)O)[C@@H](O)[C@H]1O ... 4.70
